system: E. coli (Ec); assay: Broth microdilution minimum inhibitory concentration (MIC), CLSI; type: cell-based; conditions: Escherichia coli, growth medium supplemented with sodium bicarbonate, read-out: E. coli + bicarb MIC
The entries below come with measured MIC values attached.

Solved cases below.
COMPOUND | MIC
CC(C)(N)C(=O)N1CCN(C(=O)Nc2ccn(-c3ccc(CCN4CC5CC(N)C5C4)cc3)c(=O)n2)CC1 (stereo not drawn) | < 8 µg/mL
C[C@@H](Cc1ccc(-n2ccc(NC(=O)N3CCN(C(=O)C(C)(C)N)CC3)nc2=O)cc1)N1C[C@@H]2[C@@H](CN)[C@@H]2C1 | < 8 µg/mL
C[C@@H]1CN(C(=O)C(C)(C)N)CCN1C(=O)Nc1ccn(-c2ccc(CN3C[C@@H]4[C@@H](N)[C@@H]4C3)cc2)c(=O)n1 | < 8 µg/mL

Qu. State recorded MIC with E. coli (Ec), entry CC(C)(N)C(=O)N1CCN(C(=O)Nc2ccn(-c3ccc(CN4C[C@@H]5[C@@H](N)[C@@H]5C4)cc3)c(=O)n2)C(c2ccccc2)C1 (stereo partly drawn) , no comment.
Ans. < 8 µg/mL

Qu. Fill: MIC (E. coli (Ec)) for this compound CC(C)(N)C(=O)N1CCN(C(=O)Nc2ccn(-c3ccc(CN4C[C@@H]5[C@H](C4)[C@H]5C(N)=O)cc3)c(=O)n2)CC1
Ans. 8 to 32 µg/mL

Qu. Determine reported MIC for CC(C)(N)C(=O)N1CCN(C(=O)Nc2ccn(-c3ccc(CCN4CCC5(CCNC5)C4)cc3)c(=O)n2)CC1 (stereo not drawn) ; test system: E. coli (Ec).
Ans. < 8 µg/mL

----------
Some compounds, each annotated with its measured MIC.
tested on: E. coli (Ec); experiment: Broth microdilution minimum inhibitory concentration (MIC), CLSI; format: cell-based; conditions: Escherichia coli, growth medium with sodium bicarbonate, read-out: E. coli + bicarb MIC

A selection of reference data follows.
COMPOUND | SUBJECT OF TEST | RESULT
CC(Cc1ccc(-n2ccc(NC(=O)N3CCN(C(=O)C(C)(C)N)CC3)nc2=O)cc1)N1CC2CCC(N)C2C1 (stereo not drawn) | E. coli (Ec) | < 8 µg/mL
CC(Cc1ccc(-n2ccc(NC(=O)N3CCN(C(=O)C(C)(C)N)CC3)nc2=O)cc1C(F)(F)F)N1C[C@@H]2[C@@H](N)[C@@H]2C1 (stereo partly drawn) | E. coli (Ec) | > 32 µg/mL
CC(C)[C@@H](N)CC(=O)N1CCN(C(=O)Nc2ccn(-c3ccc(CC(C)N4C[C@@H]5[C@@H](CN)[C@@H]5C4)cc3)c(=O)n2)CC1 (stereo partly drawn) | E. coli (Ec) | < 8 µg/mL
CC(C)(N)C(=O)N1C[C@H]2CN(C(=O)Nc3ccn(-c4ccc(CN5C[C@@H]6[C@@H](N)[C@@H]6C5)cc4)c(=O)n3)C[C@H]2C1 | E. coli (Ec) | > 32 µg/mL
NC[C@@H]1[C@H]2CN(C(=O)Nc3ccn(-c4ccc(CN5C[C@@H]6[C@@H](N)[C@@H]6C5)cc4)c(=O)n3)C[C@@H]12 | E. coli (Ec) | > 32 µg/mL

Would you kindly look at the next entry?
Qu. // fetch MIC given entry NCC1CN(C(=O)Nc2ccn(-c3ccc(CN4C[C@@H]5[C@@H](N)[C@@H]5C4)cc3)c(=O)n2)C1
Ans. 8 to 32 µg/mL

Reference for the values: patent US12692253B2
